# SYSTEM_NAME: Msn1 (UniProt P22148)
# Sequence: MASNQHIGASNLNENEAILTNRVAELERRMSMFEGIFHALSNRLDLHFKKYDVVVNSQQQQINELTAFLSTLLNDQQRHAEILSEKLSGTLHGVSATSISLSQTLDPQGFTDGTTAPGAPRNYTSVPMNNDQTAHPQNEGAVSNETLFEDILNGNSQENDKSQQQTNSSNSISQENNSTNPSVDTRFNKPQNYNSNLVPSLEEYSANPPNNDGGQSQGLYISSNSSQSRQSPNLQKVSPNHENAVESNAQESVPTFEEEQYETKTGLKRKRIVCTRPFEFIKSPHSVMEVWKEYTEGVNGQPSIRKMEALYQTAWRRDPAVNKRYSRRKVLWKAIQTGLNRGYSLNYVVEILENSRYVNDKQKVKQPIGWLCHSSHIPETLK
# EXPERIMENTAL_PROTOCOL: PBM E-score (8-mer binding enrichment) (E-score (-0.5 to 0.5)); higher = stronger / more preferred TF binding
# CONDITION_DETAILS: protein concentration: 200 nM; construct: GST-full length
Whole data set: some 33,000 sequences, median “E-score (-0.5 to 0.5)” near -0.013, cut for the highest 2% near 0.3. The list comes from a sample in which the highest values are over-represented; it also holds close analogues and randomly drawn sequences.
Exercise: state measured PBM E-score for each of the sequences provided.

Consider the reported PBM E-score for these sequences:
Request: Provide value of PBM E-score for this record tested with Msn1 (UniProt P22148): ATGTCGTG
Result: 0.337

Request: Provide value of PBM E-score for this record tested with Msn1 (UniProt P22148): GAACATCC
Result: 0.162

Request: Provide value of PBM E-score for this record tested with Msn1 (UniProt P22148): AGAGCGAA
Result: -0.00578

Request: Provide value of PBM E-score for this record tested with Msn1 (UniProt P22148): AGAGGACC
Result: -0.208

Request: Provide value of PBM E-score for this record tested with Msn1 (UniProt P22148): ATGTCGTC
Result: 0.191

Request: Provide value of PBM E-score for this record tested with Msn1 (UniProt P22148): AGAGGACA
Result: 0.353

Request: Provide value of PBM E-score for this record tested with Msn1 (UniProt P22148): AGACATCC
Result: 0.328

Request: Provide value of PBM E-score for this record tested with Msn1 (UniProt P22148): CGACATCC
Result: 0.0825

Give PBM E-score for each of the items listed below.
1. AACCTACA
2. AAATTTAA
3. CGAGCTAA

Result:
0.0149
0.238
-0.0305

Give PBM E-score for each of the items listed below.
1. GTGTCGTA
2. GGACATCC
3. TATTGAGA
4. GATTCCGC
5. TGACATCA
6. CCTTGTCC

Result:
[0.228, 0.475, 0.208, 0.0634, 0.257, 0.449]

---

# SYSTEM_NAME: Msn1 (UniProt P22148)
# Sequence: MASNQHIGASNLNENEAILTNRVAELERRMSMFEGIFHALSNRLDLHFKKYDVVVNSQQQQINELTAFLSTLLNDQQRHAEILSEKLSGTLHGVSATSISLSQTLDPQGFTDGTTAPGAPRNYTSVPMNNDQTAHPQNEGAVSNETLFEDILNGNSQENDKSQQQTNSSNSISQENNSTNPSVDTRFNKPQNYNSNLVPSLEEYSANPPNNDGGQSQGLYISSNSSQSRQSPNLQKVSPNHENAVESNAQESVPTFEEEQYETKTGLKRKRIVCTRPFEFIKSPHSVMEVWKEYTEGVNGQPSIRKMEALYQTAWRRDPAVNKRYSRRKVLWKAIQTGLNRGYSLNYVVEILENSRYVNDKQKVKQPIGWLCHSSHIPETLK
# EXPERIMENTAL_PROTOCOL: PBM E-score (8-mer binding enrichment) (E-score (-0.5 to 0.5)); higher = stronger / more preferred TF binding
# CONDITION_DETAILS: protein concentration: 200 nM; construct: GST-full length
Over roughly 33,000 sequences, “E-score (-0.5 to 0.5)” has its median near -0.013; the highest 2% begin near 0.3. Many of the other results were omitted from the sample, so the highest values are more common in it than they were.
Exercise: state measured PBM E-score for each of the sequences provided.

Request: Please give the measured PBM E-score for this sequence: AACCTAAA
Result: 0.121

Request: Please give the measured PBM E-score for this sequence: GAAAGACA
Result: 0.227

Give PBM E-score for each of the items listed below.
1. GTACCTGA
2. AACGGACA
3. AGAAATCC
4. GCACCCAC
5. CAGACAAA
6. ACGCAAGA
7. CAGACAAG
8. AATGACAA

Result:
[0.149, 0.344, -0.0711, -0.091, 0.451, 0.0419, 0.28, 0.29]

Give PBM E-score for each of the items listed below.
1. GGATGGAC
2. CGATTGAC
3. CTCGGTAC
4. CGCCAGCG
5. ACGTCCGC
6. GATGACAA
7. GATCCGGA
8. AGGTCCGG

Result:
1. 0.178
2. 0.151
3. 0.0483
4. -0.278
5. 0.14
6. 0.336
7. 0.0679
8. 0.041

Give PBM E-score for each of the items listed below.
1. CCGGCTAG
2. TATGACAA

Result:
1: -0.141; 2: 0.408

Give PBM E-score for each of the items listed below.
1. CGATTGTA
2. ACATGGAC

Result:
1. 0.088
2. 0.326

Give PBM E-score for each of the items listed below.
1. GCAAGAAA
2. TACGGAAA

Result:
1. 0.0128
2. 0.17

Give PBM E-score for each of the items listed below.
1. AGATTGTA
2. ACATGGAT
3. ATGTCCGC
4. AAGACAGA
5. CATGACAC
6. AAGCAAGT
7. CGAAGACA
8. AAATGGAT

Result:
1: 0.091; 2: 0.162; 3: 0.44; 4: 0.216; 5: 0.193; 6: 0.00084; 7: 0.259; 8: -0.0165

Give PBM E-score for each of the items listed below.
1. CTGTCCGC
2. GGAAGACA
3. AGATTGTC
4. CCTAACGC

Result:
[0.114, 0.251, 0.369, -0.129]

Give PBM E-score for each of the items listed below.
1. AAGACAAT
2. GGTTTGCA
3. CGTTGCAG

Result:
[0.409, -0.172, -0.0934]

---

# SYSTEM_NAME: Msn1 (UniProt P22148)
# Sequence: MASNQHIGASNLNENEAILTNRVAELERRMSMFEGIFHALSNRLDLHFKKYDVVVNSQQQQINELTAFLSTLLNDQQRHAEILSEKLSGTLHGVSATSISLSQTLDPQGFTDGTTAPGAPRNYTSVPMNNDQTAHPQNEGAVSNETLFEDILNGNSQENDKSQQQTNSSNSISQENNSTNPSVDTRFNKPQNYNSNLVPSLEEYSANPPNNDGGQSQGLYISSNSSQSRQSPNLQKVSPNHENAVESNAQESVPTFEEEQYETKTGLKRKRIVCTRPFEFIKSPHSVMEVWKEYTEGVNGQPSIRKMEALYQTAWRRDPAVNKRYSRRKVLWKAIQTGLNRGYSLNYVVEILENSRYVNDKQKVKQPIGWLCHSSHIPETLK
# EXPERIMENTAL_PROTOCOL: PBM E-score (8-mer binding enrichment) (E-score (-0.5 to 0.5)); higher = stronger / more preferred TF binding
# CONDITION_DETAILS: protein concentration: 200 nM; construct: GST-full length
The full ranking holds about 33,000 sequences; the median of “E-score (-0.5 to 0.5)” is about -0.013, and the highest 2% start at about 0.3. The entries come from a sample that favours the highest values as a whole.
Everything with PBM E-score lower than 0.06 is n; everything else, including exactly 0.06, is y.

Here's what some known entries look like.
Request: Decide: is the reported value of PBM E-score for GGGGTGCA equal to or greater than 0.06?
Result: n

Request: Decide: is the reported value of PBM E-score for CCGGTACG equal to or greater than 0.06?
Result: n

Request: Decide: is the reported value of PBM E-score for GATACAAC equal to or greater than 0.06?
Result: y

***
Request: Decide: is the reported value of PBM E-score for ACGGACCC equal to or greater than 0.06?
Result: n

Request: Decide: is the reported value of PBM E-score for AGTACAAA equal to or greater than 0.06?
Result: y

Request: Decide: is the reported value of PBM E-score for GCTATGAA equal to or greater than 0.06?
Result: n

Request: Decide: is the reported value of PBM E-score for AGAAATGG equal to or greater than 0.06?
Result: n

Request: Decide: is the reported value of PBM E-score for CTGGTACC equal to or greater than 0.06?
Result: n

Request: Decide: is the reported value of PBM E-score for ACGGACAG equal to or greater than 0.06?
Result: y
